Task for the reader: assign each of the following binders its reported log10 of IC50.
Target: UK variant RBD (R319-F541 with N501Y), C-terminal 6-His (SARS-CoV-2, UniProt P0DTC2 319-541)
Experiment: lateral flow NC50, RBD-AuNP vs immobilised ACE2
Units before log transform: µg/mL; reported quantity: IC50; transform: log10.

See these solved cases before continuing.
{"columns": ["Binder", "log10 of IC50"],
 "data": [
  ["1035419 (antibody, V domains shown) VH: QVQLKQSGAELVRPGASVKLSCKTSGYIFTSYWIHWIKQRSGQGLEWIARIYPGTGSTYNNEKFKGKATLTADKSSSTAYMQLSSLKSEDSAVYFCARGEDNLYFYAMDYWGQGTSVTVSS VL: NIVLTQSPASLAVSLGQRATISCRASESVDSYGASFMHWCQQKPGQPPKLLIYLASNLESGVPARFSGSGSRTDFTLTIDPVEADDAATYYCQQNYEDPWTFGGGTKLEIK", 1.44],
  ["1035240 (antibody, V domains shown) VH: QVQLQQSGAELARPGASVKMSCKASGYTFTTYTMHWVKQRPGQGLEWIGYINPSSGYTNYNQKFKDKATLTADTSSSTAYMQLSSLTSEDSAVYYCARRNPLYAMDYWGQGTSVTVSS VL: DIKMTQSPSSMYASLGERVTITCKASQDINSYLNWFQQKPGKSPKTLIYRANRLVDGVPSRFSGSGSGQDYSLTISSLEYEDMGIYYCLQYDEFPYTFGGGTKLEIK", -0.07],
  ["1035740 (antibody, V domains shown) VH: EVLLQQSGPELVKPGASVKIPCKASGYTFTDYNMDWVKQSHGKSLEWIGDINPNNGFTIYNQKFKGKATLTVDKSSSTAYMELRSLTSEDTAVYYCAREGYGNYFDYWGQGTTLTVSS VL: DVLLTQSPAILSVSPGERVSFSCRASQSIGTSLHWYQQRTNGSPRLLIKYVSESISGIPSRFSGSGSGTDFTLSINSVESEDIADYYCQQSSSWPTTFGAGTKLELK", 0.13],
  ["1035762 (antibody, V domains shown) VH: EVQLQQSGPELVKPGASVKISCKTSGYTFTEYTMHWVKQSHGKSLEWIGGINPNNGDTGYNQKFKGKATLTVDKSSSTAYMELRSLTFEDSAVYYCARDGYPLYYAMDYWGQGTSVTVSS VL: DIQMTQSPSSLSASLGERVSLTCRASQEISGYLCWLQQKPDGTIKRLIYAASTLDSAVPKRFSGSRSGSDYSLTISSLESEDFADFYCLQYASYPWTFGGGTKLEIK", -0.02]
]}

The binder 1035753 (antibody, V domains shown) VH: EVQLQQSGAELVRPGALVKLSCKASGFNIKDYYMHWVKQRPEQGLEWIGWIDPENGNTIYDPKFLGKASITADTSSNTAYLQLSSLTSEDTAVYYCARWYYYAMDSWGQGTSVTVSS VL: DIQMTQTTSSLSASLGDRVTISCSASQGISNYLNWYQQKPDGTVKLLIYYTSSLHSGVPSRFSGSGSGTDYSLTISNLEPEDIATYYCQQYSKLPFTFGGGTNLEMK showed log10 of IC50 equal to 0.18
